Reference source for all entries: ChEMBL document CHEMBL2069259

# assay_system: UniProtKB P08684
# Sequence (P08684 whole entry): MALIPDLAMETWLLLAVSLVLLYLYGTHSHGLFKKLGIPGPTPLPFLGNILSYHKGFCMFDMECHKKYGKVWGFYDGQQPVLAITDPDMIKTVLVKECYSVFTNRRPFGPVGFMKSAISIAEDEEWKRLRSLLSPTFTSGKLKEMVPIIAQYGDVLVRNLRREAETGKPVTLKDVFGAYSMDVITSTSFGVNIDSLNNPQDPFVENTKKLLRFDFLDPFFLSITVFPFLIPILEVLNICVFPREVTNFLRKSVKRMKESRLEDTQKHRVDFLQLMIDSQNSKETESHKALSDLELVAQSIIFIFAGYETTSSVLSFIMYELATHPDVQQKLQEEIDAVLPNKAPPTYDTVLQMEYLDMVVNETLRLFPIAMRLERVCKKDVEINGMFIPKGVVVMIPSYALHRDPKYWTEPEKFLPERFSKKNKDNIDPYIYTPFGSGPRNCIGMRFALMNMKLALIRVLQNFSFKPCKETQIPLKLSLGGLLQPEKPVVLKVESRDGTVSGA
# assay_notes: Inhibition of human CYP3A4 assessed as ratio of IC50 in absence of NADPH to IC50 for presence of NADPH using 7-benzyloxyquinoline as substrate after 30 mins
# reported_conditions: probe 7-benzyloxyquinoline
Starred links: 1 amine or outer side, 2 acyl side, 3 side chain; linkers in the order of their positions; H or OH if unused. Positions of bridges follow the written chain, without caps; N, C: chain ends. Non-standard residues stand in square brackets, D forms with d. Residues, ends and D or L forms follow the SMILES beside them. Chains are numbered I, II in the order given. Actinocin(9to1) = Cc1c2oc3c(C)ccc(C(=O)[*:1])c3nc-2c(C(=O)[*:2])c(N)c1=O; NMeV = CN[C@H](C(=O)O)C(C)C; Sar = CNCC(=O)O
Below, each entry is listed alongside its reported IC50 shift at 0.5 h.

Some solved entries appear below for comparison.
COc1cc(C(=O)NS(=O)(=O)c2ccccc2C)ccc1Cc1cn(C)c2ccc(NC(=O)OC3CCCC3)cc12 = 2
Cc1c2oc3c(C)ccc(C(=O)N[C@@H]4C(=O)N[C@H](C(C)C)C(=O)N5CCC[C@H]5C(=O)N(C)CC(=O)N(C)[C@@H](C(C)C)C(=O)O[C@@H]4C)c3nc-2c(C(=O)N[C@@H]2C(=O)N[C@H](C(C)C)C(=O)N3CCC[C@H]3C(=O)N(C)CC(=O)N(C)[C@@H](C(C)C)C(=O)O[C@@H]2C)c(N)c1=O [DACTINOMYCIN] (I: T[dV]P[Sar][NMeV] / II: T[dV]P[Sar][NMeV]; ester I:1-I:C, II:1-II:C; linker I:N-II:N via Actinocin(9to1)) = 2
Cc1cccc(CN2CCN(C(c3ccccc3)c3ccc(Cl)cc3)CC2)c1 (stereo not drawn) = > 5
Cc1cccc(C)c1NC(=O)C1CCCCN1C (stereo not drawn) [MEPIVACAINE] = 2
C#C[C@]1(O)CC[C@H]2[C@@H]3CCc4cc(OC)ccc4[C@H]3CC[C@@]21C = > 5
C#C[C@]1(O)CC[C@H]2[C@@H]3CCc4cc(O)ccc4[C@H]3CC[C@@]21C = 2
CC1=C(/C=C/C(C)=C/C=C/C(C)=C/C(=O)O)C(C)(C)CCC1 = > 5

Lab note: next compound to report on.
Task: Record request: IC50 shift at 0.5 h value, item CC[C@H]1OC(=O)[C@H](C)[C@@H](O[C@H]2C[C@@](C)(OC)[C@@H](O)[C@H](C)O2)[C@H](C)[C@@H](O[C@@H]2O[C@H](C)C[C@H](N(C)C)[C@H]2O)[C@](C)(OC)C[C@@H](C)C(=O)[C@H](C)[C@@H](O)[C@]1(C)O
Output: > 5
